Listed next: entries and their corresponding Potency.
Test: qHTS of pediatric cancer cell lines to identify multiple opportunities for drug repurposing: Confirmatory screen for Rh30 cells (AID 1347126); also: potency is read from the fitted curve at half-maximal effect; nearly all actives have a fitted effect of over 55% in size
Settings: Rh30 rhabdomyosarcoma cell viability; series mostly up to 45.9 µM
Method: Drug repurposing or repositioning has been offered as a strategy for drug development in oncology programs. […] [1] Shen, M et al. Quantitative high-throughput phenotypic screening of pediatric cancer cell lines identifies multiple opportunities for drug repurposing. […] Cells were assayed in growth media at a density of 500-1,000 cells/well. […] After a 15 min incubation at room temperature, samples were analyzed for luminescence intensity using a ViewLux High-throughput CCD imager equipped with clear filters.
Results filed as inconclusive are left out. Active and inactive are the calls of the source. Calls follow the shape of the dose curve; as a rule, active = well fitted cell-killing curve with a large enough effect; inconclusive = small, poorly fitted or top-dose-only effect, or effect the other way; inactive = no such curve, though single readings can be large or run the other way.
MEASURED_QUANTITY: Potency

>>> result("Nc1ccn([C@@H]2O[C@H](CO)[C@H](O)C2(F)F)c(=O)n1")
"5.85 µM (active)"
>>> result("C[C@@]12O[C@@H](C[C@]1(O)CO)n1c3ccccc3c3c4c(c5c6ccccc6n2c5c31)CNC4=O")
"2.33 µM (active)"
>>> result("C=CC(=O)N1CCC[C@@H](n2nc(-c3ccc(Oc4ccccc4)cc3)c3c(N)ncnc32)C1")
"10.4 µM (active)"
>>> result("Cc1ccc(C(=O)Nc2cccc(C(F)(F)F)c2)cc1-c1ccc2nc(NCCN3CCOCC3)ncc2c1")
"5.22 µM (active)"
>>> result("CCC1=C[C@@H]2CN(C1)Cc1c([nH]c3ccccc13)[C@@](C(=O)OC)(c1cc3c(cc1OC)N(C)[C@@H]1[C@@](O)(C(=O)OC)[C@H](OC(C)=O)[C@]4(CC)C=CCN5CC[C@]31[C@@H]54)C2")
"23.3 µM (active)"
>>> result("O=C(NC1CCNCC1)c1[nH]ncc1NC(=O)c1c(Cl)cccc1Cl")
"0.465 µM (active)"
>>> result("Cc1ccc(NC(=O)C2(c3ccc4c(c3)OC(F)(F)O4)CC2)nc1-c1cccc(C(=O)O)c1")
"9.27 µM (active)"
